Measured EC50 values are reported for all entries that follow.
STUDY TARGET: FXR (Homo sapiens (Human))
PROCEDURE DETAILS: transient human FXR/Gal4-luciferase reporter assay
Format: cell-based
CONDITION NOTES: Gal4-hFXR fusion construct, HEK293 reporter cells; response relative to 8 μM GW-4064
Provide the reading as a plain figure in µM.

// recorded EC50 for CC(C)(F)c1nc(C23CCC(CN(c4cccc(N5CC6(COC6)C5)c4)C(=O)[C@H]4C[C@](O)(C(F)(F)F)C4)(CC2)CC3)no1 : 0.97

* * *

STUDY TARGET: FXR (Homo sapiens (Human), UniProt Q96RI1)
Sequence (Q96RI1 262-486): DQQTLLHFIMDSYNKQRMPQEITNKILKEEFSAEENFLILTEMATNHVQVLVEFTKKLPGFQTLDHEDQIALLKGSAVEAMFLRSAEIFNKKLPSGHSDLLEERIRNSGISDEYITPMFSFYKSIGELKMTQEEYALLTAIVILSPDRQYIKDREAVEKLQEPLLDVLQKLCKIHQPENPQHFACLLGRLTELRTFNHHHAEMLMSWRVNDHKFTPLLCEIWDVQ
PROCEDURE DETAILS: transient human FXR/Gal4-luciferase reporter assay
Format: cell-based
PROPERTY NAME: EC50 (µM)
Provide the reading as a plain figure in µM.

MOLECULE | QUANTITATIVE READOUT
O=C(N(CC12CCC(c3nc(C(F)F)no3)(CC1)CC2)c1cccc(-c2cnc(C(F)(F)F)nc2)c1)C12CC(F)(C1)C2 [Example 467] | 2.11

// recorded EC50 for CCOc1ccc(-c2cccc(N(CC34CCC(c5noc(C(F)F)n5)(CC3)CC4)C(=O)C34CC(F)(C3)C4)c2)cc1 [Example 461] : 0.603

// recorded EC50 for CCOc1ncc(-c2cccc(N(CC34CCC(c5nc(C(C)(C)C)no5)(CC3)CC4)C(=O)C34CC(N)(C3)C4)c2)cn1 [Example 506] : 2.37

* * *

STUDY TARGET: FXR (Homo sapiens (Human))
PROCEDURE DETAILS: transient human FXR/Gal4-luciferase reporter assay
Format: cell-based
CONDITION NOTES: Gal4-hFXR fusion construct, HEK293 reporter cells; response relative to 8 μM GW-4064
PROPERTY NAME: EC50 (nM)
Provide the reading as a plain figure in nM.

SMILES DATA | UNIT DESCRIPTOR | QUANTITATIVE READOUT
Cc1nc2ncc(-c3cccc(N(CC45CCC(c6nc(C7CC7)no6)(CC4)CC5)C(=O)C45CC(F)(C4)C5)c3)cc2s1 | nM | 83
CC(C)(F)c1nc(C23CCC(CN(C(=O)O[C@H]4C[C@](O)(C(F)(F)F)C4)c4cc(-c5ccc(OC(F)F)cc5)c(F)cn4)(CC2)CC3)no1 | nM | 99
CCOc1cnc(-c2cccc(N(CC34CCC(c5noc(C(C)(C)C)n5)(CC3)CC4)C(=O)C34CC(F)(C3)C4)c2)nc1 | nM | 47

Let us examine a further case.
// recorded EC50 for CCOc1ncc(-c2cccc(N(CC34CCC(c5ccc(C6(C#N)CC6)cc5)(CC3)OC4)C(=O)C34CC(F)(C3)C4)c2)cn1 : 167

* * *

STUDY TARGET: FXR (Homo sapiens (Human))
PROCEDURE DETAILS: transient human FXR/Gal4-luciferase reporter assay
Type: cell-based
Label Met when EC50 < 300 nM; otherwise Not met.

MOLECULE | GROUP
CC(C)(O)c1ccc(-c2cccc(N(CC34CCC(c5noc(C(C)(C)F)n5)(CC3)CC4)C(=O)NCCN3CCOCC3)c2)cc1 | Not met
Cc1nc2ccc(-c3cncc(N(CC45CCC(c6nc(C(C)(C)C)no6)(CC4)CC5)C(=O)C45CC(F)(C4)C5)c3)cc2s1 | Not met

Determine if CC(C)(C)c1nc(C23CCC(CN(C(=O)C45CC(F)(C4)C5)c4cc(-c5ccc(OC(F)F)cn5)ccn4)(CC2)CC3)no1 shows EC50 strictly lower than 300 nM.
Met

Determine if CCOc1ncc(-c2cccc(N(CC34CCC(c5noc(C(C)(C)C)n5)(CC3)CC4)C(=O)[C@H]3C[C@@H](OC)C3)c2)cn1 shows EC50 strictly lower than 300 nM.
Not met

Determine if CC(C)(O)c1ccc(-c2cccc(N(CC34CCC(c5noc(C(C)(C)F)n5)(CC3)CC4)C(=O)N3CCN(CC(F)(F)F)CC3)c2)cc1 shows EC50 strictly lower than 300 nM.
Met

Determine if O=C(N(CC12CCC(c3noc(C4(C(F)(F)F)CC4)n3)(CC1)CC2)c1cccc(-c2ccc(OC(F)F)cc2)c1)C12CC(F)(C1)C2 shows EC50 strictly lower than 300 nM.
Met

Determine if CCOc1ncc(-c2cccc(N(CC34CCC(c5nc(C(C)(C)C)no5)(CC3)CC4)C(=O)C3CC(O)(C(F)(F)F)C3)c2)cn1 (stereo not shown) shows EC50 strictly lower than 300 nM.
Met

Determine if CCc1ccc(-c2cccc(N(CC34CCC(c5ccc(C(F)(F)F)cn5)(CC3)CC4)C(=O)C34CC(F)(C3)C4)c2)cc1 shows EC50 strictly lower than 300 nM.
Not met

Determine if CC(C)(C)c1nc(C23CCC(CN(C(=O)C45CC(F)(C4)C5)c4cncc(-c5cnc6nc(C7CC7)sc6c5)c4)(CC2)CC3)no1 shows EC50 strictly lower than 300 nM.
Not met

Determine if CCOc1ncc(-c2cccc(N(CC34CCC(c5noc(C(C)(C)C)n5)(CC3)CC4)C(=O)C3CC(O)(C(F)(F)F)C3)c2)cn1 (stereo not shown) shows EC50 strictly lower than 300 nM.
Met

Determine if CC(C)(O)c1ccc(-c2cccc(N(CC34CCC(c5noc(C(C)(C)F)n5)(CC3)CC4)C(=O)NCC(F)(F)CO)c2)cc1 shows EC50 strictly lower than 300 nM.
Met

Determine if CCOc1cnc(-c2ccnc(N(CC34CCC(c5noc(C(C)(C)C)n5)(CC3)CC4)C(=O)C34CC(F)(C3)C4)c2)nc1 shows EC50 strictly lower than 300 nM.
Met

Determine if O=C(N(CC12CCC(c3nc(C(F)F)no3)(CC1)CC2)c1cccc(-c2ccc(OC(F)F)cc2)c1)C12CC(F)(C1)C2 shows EC50 strictly lower than 300 nM.
Met
